B1: CPEB3 Ribozyme (parent)
chain: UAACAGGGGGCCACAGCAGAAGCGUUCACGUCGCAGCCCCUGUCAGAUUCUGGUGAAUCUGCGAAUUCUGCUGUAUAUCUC

# Variants of: B1
# measurementDescription: self-cleavage, relative activity (ratio to wild type); higher = more cleavage; in vitro, sequencing
propertyLabel: self-cleavage
Numbers only.

Answered cases to consult:
Query block: Which self-cleavage reading was recorded for the variant A35G G52A ?
Result block: 1.36

Query block: Cool, now U58C C71U
Result block: 0.41

Query block: Cool, now U69C U74A
Result block: 0.55

Query block: Cool, now C38A G63U
Result block: 0.1

Query block: Cool, now U43C A47G
Result block: 0.58

Give me self-cleavage for each of these variants, listed below.
1. C29U U51A
2. U26A U49A
3. C29A U78C

Result block:
[0.53, 0.49, 0.3]

Give me self-cleavage for each of these variants, listed below.
1. U26A A45C
2. A13G C81A
3. A20G U48A
4. U54G U76C
5. A2U C40G
6. C59A U78A

Result block:
0.21
1.23
0.38
0.98
0.31
0.22

Give me self-cleavage for each of these variants, listed below.
1. A18G A45U
2. A15G G42C
3. C62G C79A
4. A3U U48A
5. A20U G70A
6. C27G U76C

Result block:
1. 0.35
2. 0.25
3. 0.24
4. 0.56
5. 0.17
6. 0.22

Give me self-cleavage for each of these variants, listed below.
1. A2G A56G
2. G19A
3. A15G U26C

Result block:
1: 0.5; 2: 0.29; 3: 0.41

Give me self-cleavage for each of these variants, listed below.
1. A13U G70A
2. C50U U72C
3. C11G U60A

Result block:
1. 0.48
2. 1.13
3. 0.12

Give me self-cleavage for each of these variants, listed below.
1. A21U U76C
2. U43G U72G
3. A28G U72A

Result block:
[0.27, 0.17, 0.3]

Give me self-cleavage for each of these variants, listed below.
1. A13U A18C
2. A18C C37A
3. C23G U51G
4. A2G A75U

Result block:
0.42
0.33
0.5
0.84

Give me self-cleavage for each of these variants, listed below.
1. U25C C29G
2. A65U U72C
3. G6U U76A

Result block:
1: 0.24; 2: 0.36; 3: 0.32

Attribution: the RNAGym collection of RNA variant scans (doi:10.1093/nar/gkz1192)
